testedTarget: HLA-B*45:01
assayProcedure: IEDB peptide-MHC binding, purified MHC/competitive/radioactivity; filed as Kd, often an IC50 or EC50 that approximates it; bounds were set here for any values at or beyond the usual limits of such assays
settings: source organism: Lymphocytic choriomeningitis virus (strain Armstrong)
recordedMetric: pKd
Schema: pKd number; meaning minus log10 of the concentration expressed in molar units.

Need pKd, item SEISVILQEL
5.38

* * *

testedTarget: HLA-A*03:01
assayProcedure: IEDB peptide-MHC binding, purified MHC/competitive/radioactivity; filed as Kd, often an IC50 or EC50 that approximates it; bounds were set here for any values at or beyond the usual limits of such assays
settings: source organism: Vaccinia virus WR
Kindly state pKd for each of the entries shown.
Schema: pKd number; meaning minus log10 of the concentration expressed in molar units.

Hi! What's the reported pKd for KIAPGIADIR on HLA-A*03:01?
5.78

Hi! What's the reported pKd for EQNLTDTNFK on HLA-A*03:01?
4.75

Hi! What's the reported pKd for IIGPMFSGK on HLA-A*03:01?
9.14

Hi! What's the reported pKd for NFLRSIAMLK on HLA-A*03:01?
7.13

Hi! What's the reported pKd for IITVGMLIY on HLA-A*03:01?
5.82

Hi! What's the reported pKd for AMSFDGFIR on HLA-A*03:01?
5.02

Hi! What's the reported pKd for LFYPSMFTLR on HLA-A*03:01?
5.80

Hi! What's the reported pKd for DLLNVTYNIK on HLA-A*03:01?
6.44

Hi! What's the reported pKd for VTIKYSNDNR on HLA-A*03:01?
4.99

Hi! What's the reported pKd for SMASLKSLY on HLA-A*03:01?
8.92

Hi! What's the reported pKd for QVKDNIISR on HLA-A*03:01?
5.59

Hi! What's the reported pKd for GAVVKSDNK on HLA-A*03:01?
4.81

Hi! What's the reported pKd for TLVVISVIFY on HLA-A*03:01?
5.46

Hi! What's the reported pKd for AMENLKAMLY on HLA-A*03:01?
6.84

Hi! What's the reported pKd for ISGIGTFLHY on HLA-A*03:01?
6.45

Hi! What's the reported pKd for TVLPHLCLDY on HLA-A*03:01?
8.39

Hi! What's the reported pKd for FTFGDTALY on HLA-A*03:01?
6.21

Hi! What's the reported pKd for KIEEIEKVEK on HLA-A*03:01?
5.82

This collection of values is drawn from the Immune Epitope Database (IEDB).
